Tested on: SF-539 CNS
Experiment: NCI-60 one-dose screen, 48 h (100 = growth as untreated, 0 = no growth, -100 = all killed)
Details: 10 µM unless noted
This is part of a sample that, as a whole, favours compounds with a hit. Of some 83,000 tested, about 20% had one in any assay.
Below: a set of entries, each annotated with reported growth.
Only the number, expressed in %, is required.

Some compounds with recorded growth:
COMPOUND	growth (%)
COc1cc(/C=C/C(=O)c2ccc(N3CCN(C)CC3)cc2)ccc1F	65.6
CC1OC(O[C@@H]2[C@H](O)C(CO)OC(O[C@H]3COC(O[C@H]4CC[C@]5(C)[C@H]6CC[C@]78OC[C@@]9(CCC(C)(C)C[C@H]97)[C@H](O)C[C@@]8(C)[C@]6(C)CC[C@H]5C4(C)C)[C@@H](OC4OC(CO)[C@@H](O)[C@@H](O)[C@@H]4O)[C@@H]3O)[C@H]2OC2OC[C@@H](O)[C@@H](O)[C@@H]2O)[C@@H](O)[C@@H](O)[C@H]1O (some centres not stated)	-80.5
CCCCCCNC(=O)Oc1ccc(/C(=C(\C)c2ccc(OC)cc2)c2ccc(OCCN(C)C)cc2)cc1	45.3

Query: GET /values?readout=growth&item= `Oc1ccccc1-c1nnc(SCc2ccc(O)c3ncccc23)n1-c1ccccc1`
Reply: 7.96

Query: GET /values?readout=growth&item= `COC(=O)Nc1ccc(-c2nc(-c3cccc(O)c3)c(-c3ccnc(Br)c3)[nH]2)cc1`
Reply: 52.6

Query: GET /values?readout=growth&item= `COc1ccc([C@H]2[C@H](O)C(=O)N2c2cc(OC)c(OC)c(OC)c2)cc1Cl`
Reply: -9.87

Query: GET /values?readout=growth&item= `O=S(=O)(Nc1ccc(-c2nc(-c3cccc(O)c3)c(-c3ccnc(Br)c3)[nH]2)cc1)c1ccccc1`
Reply: 44.4
